Test Summary: self-splicing fitness, log relative to wild type (ln ratio); higher = more splicing; Tetrahymena group I intron in knt gene, E. coli kanamycin selection, DiMSum; sequences stand for … in CUCUCU…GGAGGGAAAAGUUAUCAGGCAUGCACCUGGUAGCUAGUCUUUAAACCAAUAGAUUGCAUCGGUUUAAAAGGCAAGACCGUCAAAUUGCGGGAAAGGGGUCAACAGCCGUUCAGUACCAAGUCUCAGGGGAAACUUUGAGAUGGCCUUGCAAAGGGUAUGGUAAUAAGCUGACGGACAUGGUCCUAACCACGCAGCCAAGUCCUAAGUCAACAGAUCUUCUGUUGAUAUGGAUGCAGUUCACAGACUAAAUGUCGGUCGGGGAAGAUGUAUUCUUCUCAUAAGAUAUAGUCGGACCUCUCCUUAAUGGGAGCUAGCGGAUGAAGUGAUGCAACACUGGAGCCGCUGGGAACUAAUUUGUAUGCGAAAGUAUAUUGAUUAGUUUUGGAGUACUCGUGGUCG;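 further: selection with 25 µg/mL kanamycin versus none on LB agar overnight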
Particulars: 37 °C
Decide using self-splicing fitness (ln): a value greater than or equal to -0.8 is y, a smaller one is n.

Qu. Decide: self-splicing fitness (ln) of GAUUAGCAAUAUUACGCGGG >= -0.8?
Ans. n

Qu. Decide: self-splicing fitness (ln) of CGUAAGCAAUAUUACGGACC >= -0.8?
Ans. y

Qu. Decide: self-splicing fitness (ln) of GCCCAGCAAUAUUACGCUCU >= -0.8?
Ans. y

Qu. Decide: self-splicing fitness (ln) of AGUGAGCAAUAUUACGUUGG >= -0.8?
Ans. n

Qu. Decide: self-splicing fitness (ln) of CGCAAGCAAUAUUACGCAGC >= -0.8?
Ans. n

Qu. Decide: self-splicing fitness (ln) of AUACAGCAAUAUUACGAGGU >= -0.8?
Ans. n

Qu. Decide: self-splicing fitness (ln) of UCGUAGCAAUAUUACGUAAA >= -0.8?
Ans. y

Qu. Decide: self-splicing fitness (ln) of CGAAAGCAAUAUUACGUAAA >= -0.8?
Ans. n

Qu. Decide: self-splicing fitness (ln) of UUAAAGCAAUAUUACGUACC >= -0.8?
Ans. y

Qu. Decide: self-splicing fitness (ln) of UCAUAGCAAUAUUACGUCAG >= -0.8?
Ans. n

Qu. Decide: self-splicing fitness (ln) of GGCUAGCAAUAUUACGCGUC >= -0.8?
Ans. y

Qu. Decide: self-splicing fitness (ln) of UGUGAGCAAUAUUACGACGG >= -0.8?
Ans. y

Qu. Decide: self-splicing fitness (ln) of UUUUAGCAAUAUUACGUUGG >= -0.8?
Ans. n

Qu. Decide: self-splicing fitness (ln) of ACAUAGCAAUAUUACGAACU >= -0.8?
Ans. y

Qu. Decide: self-splicing fitness (ln) of UAAUAGCAAUAUUACGGCGA >= -0.8?
Ans. y

Qu. Decide: self-splicing fitness (ln) of AAAAAGCAAUAUUACGGCCU >= -0.8?
Ans. y

Qu. Decide: self-splicing fitness (ln) of AUUUAGCAAUAUUACGAGUU >= -0.8?
Ans. n

Qu. Decide: self-splicing fitness (ln) of AUUAAGCAAUAUUACGCUAU >= -0.8?
Ans. n

Qu. Decide: self-splicing fitness (ln) of UCACAGCAAUAUUACGUCCU >= -0.8?
Ans. n

Qu. Decide: self-splicing fitness (ln) of AUUUAGCAAUAUUACGUACA >= -0.8?
Ans. n

Qu. Decide: self-splicing fitness (ln) of AGUAAGCAAUAUUACGGUCC >= -0.8?
Ans. n

Qu. Decide: self-splicing fitness (ln) of CGAGAGCAAUAUUACGGUGG >= -0.8?
Ans. n

Qu. Decide: self-splicing fitness (ln) of CAGGAGCAAUAUUACGAGUA >= -0.8?
Ans. n

Qu. Decide: self-splicing fitness (ln) of GUAGAGCAAUAUUACGGACG >= -0.8?
Ans. n

Qu. Decide: self-splicing fitness (ln) of UUGUAGCAAUAUUACGCUUG >= -0.8?
Ans. y

Qu. Decide: self-splicing fitness (ln) of ACUUAGCAAUAUUACGUGAC >= -0.8?
Ans. n

Qu. Decide: self-splicing fitness (ln) of UGUUAGCAAUAUUACGUUGU >= -0.8?
Ans. n

Qu. Decide: self-splicing fitness (ln) of GUGGAGCAAUAUUACGAAUC >= -0.8?
Ans. n

Qu. Decide: self-splicing fitness (ln) of GCAAAGCAAUAUUACGAUAA >= -0.8?
Ans. n

Qu. Decide: self-splicing fitness (ln) of CCUUAGCAAUAUUACGACGC >= -0.8?
Ans. n

Qu. Decide: self-splicing fitness (ln) of AGACAGCAAUAUUACGUUGA >= -0.8?
Ans. n

Qu. Decide: self-splicing fitness (ln) of ACUAAGCAAUAUUACGUGUA >= -0.8?
Ans. n

Qu. Decide: self-splicing fitness (ln) of GAUUAGCAAUAUUACGUCAU >= -0.8?
Ans. n

Qu. Decide: self-splicing fitness (ln) of CUACAGCAAUAUUACGCUAC >= -0.8?
Ans. n

Qu. Decide: self-splicing fitness (ln) of AAUAAGCAAUAUUACGGCUG >= -0.8?
Ans. y

Qu. Decide: self-splicing fitness (ln) of GAUCAGCAAUAUUACGGGUA >= -0.8?
Ans. y

Qu. Decide: self-splicing fitness (ln) of GCUGAGCAAUAUUACGCUGG >= -0.8?
Ans. n

Qu. Decide: self-splicing fitness (ln) of CGCGAGCAAUAUUACGCGAC >= -0.8?
Ans. y

Qu. Decide: self-splicing fitness (ln) of UCCUAGCAAUAUUACGGGUA >= -0.8?
Ans. y

Qu. Decide: self-splicing fitness (ln) of GCUCAGCAAUAUUACGCCGA >= -0.8?
Ans. n

Qu. Decide: self-splicing fitness (ln) of AUGGAGCAAUAUUACGGCAU >= -0.8?
Ans. y

Qu. Decide: self-splicing fitness (ln) of UUAAAGCAAUAUUACGGCUA >= -0.8?
Ans. y

Qu. Decide: self-splicing fitness (ln) of UUACAGCAAUAUUACGGAGU >= -0.8?
Ans. n

Qu. Decide: self-splicing fitness (ln) of AUGUAGCAAUAUUACGGUCC >= -0.8?
Ans. y

Qu. Decide: self-splicing fitness (ln) of CAGCAGCAAUAUUACGUAUG >= -0.8?
Ans. n

Qu. Decide: self-splicing fitness (ln) of GCAAAGCAAUAUUACGCCUU >= -0.8?
Ans. n

Qu. Decide: self-splicing fitness (ln) of UCGCAGCAAUAUUACGUUUU >= -0.8?
Ans. n

Qu. Decide: self-splicing fitness (ln) of UAGUAGCAAUAUUACGAGUA >= -0.8?
Ans. y

###

Test Summary: self-splicing fitness, log relative to wild type (ln ratio); higher = more splicing; Tetrahymena group I intron in knt gene, E. coli kanamycin selection, DiMSum; sequences stand for … in CUCUCU…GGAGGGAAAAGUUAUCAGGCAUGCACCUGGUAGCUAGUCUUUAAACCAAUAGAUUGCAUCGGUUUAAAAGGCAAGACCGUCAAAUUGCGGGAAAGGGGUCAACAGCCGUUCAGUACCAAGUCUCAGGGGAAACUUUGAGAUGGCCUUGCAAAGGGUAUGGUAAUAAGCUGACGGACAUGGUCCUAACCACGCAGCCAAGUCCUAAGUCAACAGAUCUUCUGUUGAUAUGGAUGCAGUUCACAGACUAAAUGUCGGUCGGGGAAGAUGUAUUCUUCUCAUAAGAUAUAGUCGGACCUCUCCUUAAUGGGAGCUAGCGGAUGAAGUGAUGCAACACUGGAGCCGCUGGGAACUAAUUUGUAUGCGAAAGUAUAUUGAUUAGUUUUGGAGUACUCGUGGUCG
Particulars: 30 °C
Provide the recorded self-splicing fitness (ln) for the entries that follow.
Enter the number alone.

Qu. Field request: self-splicing fitness (ln) | item: UUCUAGCAAUAUUACGUAAU
Ans. -3.08

Qu. Field request: self-splicing fitness (ln) | item: UCGAAGCAAUAUUACGUUAA
Ans. -2.99

Qu. Field request: self-splicing fitness (ln) | item: UAUUAGCAAUAUUACGAUGU
Ans. -3.01

Qu. Field request: self-splicing fitness (ln) | item: UAUGAGCAAUAUUACGAAUA
Ans. -2.94

Qu. Field request: self-splicing fitness (ln) | item: UUUAAGCAAUAUUACGGGCU
Ans. -2.91

Qu. Field request: self-splicing fitness (ln) | item: GACAAGCAAUAUUACGCCGU
Ans. -2.93

Qu. Field request: self-splicing fitness (ln) | item: GAAGAGCAAUAUUACGAUGA
Ans. -3.03

Qu. Field request: self-splicing fitness (ln) | item: CGUUAGCAAUAUUACGAAUC
Ans. -2.95
